- system.tested: neutrophil elastase (Homo sapiens (Human), UniProt P08246)
- Sequence (P08246 30-247): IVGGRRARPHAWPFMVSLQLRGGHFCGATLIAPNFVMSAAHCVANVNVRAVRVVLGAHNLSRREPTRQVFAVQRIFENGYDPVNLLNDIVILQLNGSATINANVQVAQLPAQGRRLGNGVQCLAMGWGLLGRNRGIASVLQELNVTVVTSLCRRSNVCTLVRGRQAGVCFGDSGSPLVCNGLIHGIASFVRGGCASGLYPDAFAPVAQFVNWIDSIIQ
- protocol: Human Neutrophil Elastase Assay
- test.conditions: substrate MeOSuc-Ala-Ala-Pro-Val-AMC
pIC50: −log10 of the molar value.

{"columns": ["molecule", "value.modifier", "pIC50"],
 "data": [
  ["CC(=O)C1=C(C)N(c2cccc(C(F)(F)F)c2)C(=O)N(C)C1c1ccc(C#N)cc1C(=O)N1Cc2cnn(C)c2C1 (stereo not shown)", ">", 9.00],
  ["CC(=O)C1=C(C)N(c2cccc(C(F)(F)F)c2)C(=O)N(C)C1c1ccc(C#N)cc1C(=O)NCc1cccnn1 (stereo not shown)", ">", 9.00],
  ["CC(=O)C1=C(C)N(c2cccc(C(F)(F)F)c2)C(=O)N(C)C1c1ccc(C#N)cc1-c1ccc2c(ccn2C)c1 (stereo not shown)", "=", 8.24],
  ["CC(=O)C1=C(C)N(c2cccc(C(F)(F)F)c2)C(=O)N(C)C1c1ccc(C#N)cc1-c1cnn(C)c1 (stereo not shown)", "=", 8.96],
  ["CC(=O)C1=C(C)N(c2cccc(C(F)(F)F)c2)C(=O)N(C)C1c1ccc(C#N)cc1C(=O)NCCO (stereo not shown)", ">", 9.00],
  ["CC(=O)C1=C(C)N(c2cccc(C(F)(F)F)c2)C(=O)N(C)C1c1ccc(C#N)cc1C(=O)NCc1cccnc1 (stereo not shown)", ">", 9.00],
  ["CC(=O)C1=C(C)N(c2cccc(C(F)(F)F)c2)C(=O)NC1c1ccc(C#N)cc1-c1ccoc1 (stereo not shown)", "=", 8.34]
]}

---

- system.tested: neutrophil elastase (Homo sapiens (Human))
- protocol: Human Neutrophil Elastase Assay
- test.conditions: substrate MeOSuc-Ala-Ala-Pro-Val-AMC
IC50 by entry:

{"columns": ["compound", "result.unit", "value.modifier", "IC50"],
 "data": [
  ["CCOC(=O)C1=C(C)N(c2cccc(C(F)(F)F)c2)C(=O)N(C)C1c1ccc(C#N)cc1C(=O)NCCN (stereo not shown)", "nM", "<", 1],
  ["CCOC(=O)C1=C(C)N(c2cccc(C(F)(F)F)c2)C(=O)N(C)C1c1ccc(C#N)cc1C(=O)NC1CCNCC1 (stereo not shown)", "nM", "=", 1.7],
  ["CC(=O)C1=C(C)N(c2cccc(C(F)(F)F)c2)C(=O)N(C)C1c1ccc(C#N)cc1C(=O)N1CC[C@@H](N(C)C)C1 (stereo partly shown)", "nM", "=", 1.8],
  ["CC(=O)C1=C(C)N(c2cccc(C(F)(F)F)c2)C(=O)N(C)C1c1ccc(C#N)cc1-c1cccnc1 (stereo not shown)", "nM", "=", 1.4],
  ["CCOC(=O)C1=C(C)N(c2cccc(C(F)(F)F)c2)C(=O)N(C)C1c1ccc(C#N)cc1C(=O)N1CCN(C2CC2)CC1 (stereo not shown)", "nM", "=", 2.9],
  ["CC(=O)C1=C(C)N(c2cccc(C(F)(F)F)c2)C(=O)N(C)C1c1ccc(C#N)cc1C(=O)NCCCO (stereo not shown)", "nM", "<", 1],
  ["CCOC(=O)C1=C(C)N(c2cccc(C(F)(F)F)c2)C(=O)N(C)C1c1ccc(C#N)cc1C(=O)NCC(C)(C)O (stereo not shown)", "nM", "=", 1.3]
]}

---

- system.tested: neutrophil elastase (Homo sapiens (Human), UniProt P08246)
- protocol: Human Neutrophil Elastase Assay
- test.conditions: substrate MeOSuc-Ala-Ala-Pro-Val-AMC
- Method: Human Neutrophil Elastase Assay All other materials were of the highest grade commercially available. […] Assay conditions: Test compounds were prediluted in DMSO and subsequently in compound buffer (5% DMSO final). […] After inactivation of the enzyme, fluorescence intensities were measured at 380 nm excitation and 460 nm emission wavelengths. […]
IC50 by entry:

{"columns": ["compound", "system.tested", "IC50"],
 "data": [
  ["CCOC(=O)C1=C(C)N(c2cccc(C(F)(F)F)c2)C(=O)N(C)C1c1ccc(C#N)cc1C(=O)N1CCNC(C)C1 (stereo not drawn) [Example 4.17]", "neutrophil elastase (Homo sapiens (Human), UniProt P08246)", "2 nM"],
  ["CC(=O)C1=C(C)N(c2cccc(C(F)(F)F)c2)C(=O)N(C)C1c1ccc(C#N)cc1C(=O)NC1COC1 (stereo not drawn) [Example 1.13]", "neutrophil elastase (Homo sapiens (Human), UniProt P08246)", "< 1 nM"],
  ["CC(=O)C1=C(C)N(c2cccc(C(F)(F)F)c2)C(=O)N(C)C1c1ccc(C#N)cc1C(=O)NCc1ccoc1 (stereo not drawn) [Example 1.34]", "neutrophil elastase (Homo sapiens (Human), UniProt P08246)", "< 1 nM"],
  ["CC(=O)C1=C(C)N(c2cccc(C(F)(F)F)c2)C(=O)N(C)C1c1ccc(C#N)cc1C(=O)NC1CCC(O)C1 (stereo not drawn) [Example 1.25]", "neutrophil elastase (Homo sapiens (Human), UniProt P08246)", "1.1 nM"],
  ["CC(=O)C1=C(C)N(c2cccc(C(F)(F)F)c2)C(=O)N(C)C1c1ccc(C#N)cc1C(=O)NC1CCN(C)C1 (stereo not drawn) [Example 1.43]", "neutrophil elastase (Homo sapiens (Human), UniProt P08246)", "< 1 nM"],
  ["CC(=O)C1=C(C)N(c2cccc(C(F)(F)F)c2)C(=O)N(C)C1c1ccc(C#N)cc1C(=O)N(C)CCO (stereo not drawn) [Example 1.14]", "neutrophil elastase (Homo sapiens (Human), UniProt P08246)", "< 1 nM"],
  ["CC(=O)C1=C(C)N(c2cccc(C(F)(F)F)c2)C(=O)N(C)C1c1ccc(C#N)cc1C(=O)NCc1ccccn1 (stereo not drawn) [Example 1.46]", "neutrophil elastase (Homo sapiens (Human), UniProt P08246)", "< 1 nM"],
  ["CCOC(=O)C1=C(C)N(c2cccc(C(F)(F)F)c2)C(=O)N(C)C1c1ccc(C#N)cc1C(=O)N1CCN(CC)CC1 (stereo not drawn) [Example 3.2]", "neutrophil elastase (Homo sapiens (Human), UniProt P08246)", "3 nM"],
  ["CC(=O)C1=C(C)N(c2cccc(C(F)(F)F)c2)C(=O)N(C)C1c1ccc(C#N)cc1C(=O)N1CCn2ncnc2C1 (stereo not drawn) [Example 1.73]", "neutrophil elastase (Homo sapiens (Human), UniProt P08246)", "< 1 nM"],
  ["CC(=O)C1=C(C)N(c2cccc(C(F)(F)F)c2)C(=O)N(C)C1c1ccc(C#N)cc1C(=O)N(C)CCN(C)C (stereo not drawn) [Example 1.44]", "neutrophil elastase (Homo sapiens (Human), UniProt P08246)", "< 1 nM"],
  ["CC(=O)C1=C(C)N(c2cccc(C(F)(F)F)c2)C(=O)N(C)C1c1ccc(C#N)cc1C(=O)NC1CC1 (stereo not drawn) [Example 1.8]", "neutrophil elastase (Homo sapiens (Human), UniProt P08246)", "< 1 nM"],
  ["CC(=O)C1=C(C)N(c2cccc(C(F)(F)F)c2)C(=O)N(C)C1c1ccc(C#N)cc1C(=O)NCc1nnnn1C (stereo not drawn) [Example 1.62]", "neutrophil elastase (Homo sapiens (Human), UniProt P08246)", "< 1 nM"],
  ["CC(=O)C1=C(C)N(c2cccc(C(F)(F)F)c2)C(=O)N(C)C1c1ccc(C#N)cc1C(=O)NCc1ccon1 (stereo not drawn) [Example 1.41]", "neutrophil elastase (Homo sapiens (Human), UniProt P08246)", "< 1 nM"],
  ["CNC(=O)c1cc(C#N)ccc1C1C(C(C)=O)=C(C)N(c2cccc(C(F)(F)F)c2)C(=O)N1C (stereo not drawn) [Example 1.1]", "neutrophil elastase (Homo sapiens (Human), UniProt P08246)", "< 1 nM"],
  ["CCOC(=O)C1=C(C)N(c2cccc(C(F)(F)F)c2)C(=O)N(C)C1c1ccc(C#N)cc1C(=O)N(C)CCN (stereo not drawn) [Example 4.8]", "neutrophil elastase (Homo sapiens (Human), UniProt P08246)", "< 1 nM"],
  ["CC(=O)C1=C(C)N(c2cccc(C(F)(F)F)c2)C(=O)N(C)C1c1ccc(C#N)cc1C(=O)NCc1ccn(C)n1 (stereo not drawn) [Example 1.55]", "neutrophil elastase (Homo sapiens (Human), UniProt P08246)", "< 1 nM"],
  ["CCOC(=O)C1=C(C)N(c2cccc(C(F)(F)F)c2)C(=O)N(C)C1c1ccc(C#N)cc1C(=O)NC1CCOCC1 (stereo not drawn) [Example 3.29]", "neutrophil elastase (Homo sapiens (Human), UniProt P08246)", "1.4 nM"],
  ["CC(=O)C1=C(C)N(c2cccc(C(F)(F)F)c2)C(=O)N(C)C1c1ccc(C#N)cc1C(=O)N(C)Cc1cn[nH]c1 (stereo not drawn) [Example 1.56]", "neutrophil elastase (Homo sapiens (Human), UniProt P08246)", "0.3 nM"],
  ["CC(=O)C1=C(C)N(c2cccc(C(F)(F)F)c2)C(=O)N(C)C1c1ccc(C#N)cc1-c1ccn(C)c(=O)c1 (stereo not drawn) [Example 5.4]", "neutrophil elastase (Homo sapiens (Human), UniProt P08246)", "< 1 nM"],
  ["CCOC(=O)C1=C(C)N(c2cccc(C(F)(F)F)c2)C(=O)N(C)C1c1ccc(C#N)cc1C(=O)N(C)CCOC (stereo not drawn) [Example 3.24]", "neutrophil elastase (Homo sapiens (Human), UniProt P08246)", "1 nM"],
  ["CCOC(=O)C1=C(C)N(c2cccc(C(F)(F)F)c2)C(=O)N(C)C1c1ccc(C#N)cc1C(=O)N1CC[C@H](N(C)C)C1 (stereo partly drawn) [Example 3.38]", "neutrophil elastase (Homo sapiens (Human), UniProt P08246)", "1 nM"],
  ["CCOC(=O)C1=C(C)N(c2cccc(C(F)(F)F)c2)C(=O)N(C)C1c1ccc(C#N)cc1C(=O)NCCO (stereo not drawn) [Example 3.10]", "neutrophil elastase (Homo sapiens (Human), UniProt P08246)", "3 nM"],
  ["CC(=O)C1=C(C)N(c2cccc(C(F)(F)F)c2)C(=O)N(C)C1c1ccc(C#N)cc1-c1ccoc1 (stereo not drawn) [Example 5]", "neutrophil elastase (Homo sapiens (Human), UniProt P08246)", "2.6 nM"],
  ["CCOC(=O)C1=C(C)N(c2cccc(C(F)(F)F)c2)C(=O)N(C)C1c1ccc(C#N)cc1C(=O)NC1CCS(=O)(=O)C1 (stereo not drawn) [Example 3.34]", "neutrophil elastase (Homo sapiens (Human), UniProt P08246)", "1 nM"],
  ["CC(=O)C1=C(C)N(c2cccc(C(F)(F)F)c2)C(=O)N(C)C1c1ccc(C#N)cc1C(=O)N(C)C (stereo not drawn) [Example 1.2]", "neutrophil elastase (Homo sapiens (Human), UniProt P08246)", "< 1 nM"],
  ["CC(=O)C1=C(C)N(c2cccc(C(F)(F)F)c2)C(=O)N(C)C1c1ccc(C#N)cc1C(=O)NC1CCOCC1 (stereo not drawn) [Example 1.24]", "neutrophil elastase (Homo sapiens (Human), UniProt P08246)", "< 1 nM"],
  ["CC(=O)C1=C(C)N(c2cccc(C(F)(F)F)c2)C(=O)N(C)C1c1ccc(C#N)cc1C(=O)NCc1cnn(C)c1 (stereo not drawn) [Example 1.54]", "neutrophil elastase (Homo sapiens (Human), UniProt P08246)", "< 1 nM"]
]}
